Notes on pIC50 obtained with Histone deacetylase 5 (Homo sapiens, UniProt Q9UQL6).
Sequence (Q9UQL6 whole entry): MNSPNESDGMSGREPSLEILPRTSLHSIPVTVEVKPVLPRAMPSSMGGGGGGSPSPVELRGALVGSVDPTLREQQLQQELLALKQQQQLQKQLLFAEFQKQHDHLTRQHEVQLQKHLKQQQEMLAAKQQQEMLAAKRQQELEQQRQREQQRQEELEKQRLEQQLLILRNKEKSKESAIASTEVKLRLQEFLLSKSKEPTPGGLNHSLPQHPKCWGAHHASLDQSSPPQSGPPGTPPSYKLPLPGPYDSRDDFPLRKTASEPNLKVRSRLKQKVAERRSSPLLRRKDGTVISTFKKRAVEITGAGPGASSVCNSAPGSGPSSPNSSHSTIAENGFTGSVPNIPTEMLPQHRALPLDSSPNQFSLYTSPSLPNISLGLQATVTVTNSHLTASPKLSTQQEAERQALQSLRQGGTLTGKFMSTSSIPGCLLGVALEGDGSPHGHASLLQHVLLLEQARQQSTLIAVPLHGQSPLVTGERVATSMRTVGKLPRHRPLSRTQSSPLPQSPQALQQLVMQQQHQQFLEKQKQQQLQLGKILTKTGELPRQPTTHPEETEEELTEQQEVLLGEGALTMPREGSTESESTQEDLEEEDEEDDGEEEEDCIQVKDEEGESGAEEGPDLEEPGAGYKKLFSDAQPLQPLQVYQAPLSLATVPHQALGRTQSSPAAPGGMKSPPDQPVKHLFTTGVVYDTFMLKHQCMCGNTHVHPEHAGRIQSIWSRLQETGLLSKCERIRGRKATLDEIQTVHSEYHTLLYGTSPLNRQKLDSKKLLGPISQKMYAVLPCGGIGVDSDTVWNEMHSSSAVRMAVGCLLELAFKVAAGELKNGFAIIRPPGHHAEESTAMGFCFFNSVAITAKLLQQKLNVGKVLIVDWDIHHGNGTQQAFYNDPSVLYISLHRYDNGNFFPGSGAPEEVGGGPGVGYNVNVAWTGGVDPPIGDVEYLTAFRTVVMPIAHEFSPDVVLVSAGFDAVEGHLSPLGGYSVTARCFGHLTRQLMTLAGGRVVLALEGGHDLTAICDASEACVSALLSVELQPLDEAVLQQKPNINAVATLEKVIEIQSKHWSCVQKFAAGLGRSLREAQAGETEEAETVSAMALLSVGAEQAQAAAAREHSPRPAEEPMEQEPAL
A value of pIC50 is the negative decimal logarithm of a concentration given in moles per litre.

# COMPOUND, pIC50
measured = [
    ("COc1cc2cc(c1)COc1ccccc1NC(=O)C(CCCCCC(=O)NO)OCCC2 (racemic)", 6.47),
    ("COc1cc2cc(c1)COc1ccccc1NC(=O)C(CCCCCC(=O)NO)OC/C=C\\2 (racemic)", 7.26),
    ("COc1ccc(COC(CCCCCC(=O)NO)C(=O)Nc2ccccc2)cc1 (racemic)", 6.87),
    ("COc1cc2cc(c1)COc1ccccc1NC(=O)[C@H](CCCCCC(=O)NO)OCCC2", 6.96),
    ("COc1cc2cc(c1)COc1ccccc1NC(=O)[C@@H](CCCCCC(=O)NO)OC/C=C\\2", 6.81),
    ("O=C(CCCCCC1OCCCCCOc2ccccc2NC1=O)NO (racemic)", 5.87),
]

Continue with the compound presented below.
Measured on Histone deacetylase 5 (Homo sapiens, UniProt Q9UQL6), O=C(CCCCCC1OCCCCCCOc2ccccc2NC1=O)NO (racemic) has a documented pIC50 of 6.06

----------
- ASSAY SYSTEM: Histone deacetylase 4 (Homo sapiens)
- Sequence (P56524 whole entry): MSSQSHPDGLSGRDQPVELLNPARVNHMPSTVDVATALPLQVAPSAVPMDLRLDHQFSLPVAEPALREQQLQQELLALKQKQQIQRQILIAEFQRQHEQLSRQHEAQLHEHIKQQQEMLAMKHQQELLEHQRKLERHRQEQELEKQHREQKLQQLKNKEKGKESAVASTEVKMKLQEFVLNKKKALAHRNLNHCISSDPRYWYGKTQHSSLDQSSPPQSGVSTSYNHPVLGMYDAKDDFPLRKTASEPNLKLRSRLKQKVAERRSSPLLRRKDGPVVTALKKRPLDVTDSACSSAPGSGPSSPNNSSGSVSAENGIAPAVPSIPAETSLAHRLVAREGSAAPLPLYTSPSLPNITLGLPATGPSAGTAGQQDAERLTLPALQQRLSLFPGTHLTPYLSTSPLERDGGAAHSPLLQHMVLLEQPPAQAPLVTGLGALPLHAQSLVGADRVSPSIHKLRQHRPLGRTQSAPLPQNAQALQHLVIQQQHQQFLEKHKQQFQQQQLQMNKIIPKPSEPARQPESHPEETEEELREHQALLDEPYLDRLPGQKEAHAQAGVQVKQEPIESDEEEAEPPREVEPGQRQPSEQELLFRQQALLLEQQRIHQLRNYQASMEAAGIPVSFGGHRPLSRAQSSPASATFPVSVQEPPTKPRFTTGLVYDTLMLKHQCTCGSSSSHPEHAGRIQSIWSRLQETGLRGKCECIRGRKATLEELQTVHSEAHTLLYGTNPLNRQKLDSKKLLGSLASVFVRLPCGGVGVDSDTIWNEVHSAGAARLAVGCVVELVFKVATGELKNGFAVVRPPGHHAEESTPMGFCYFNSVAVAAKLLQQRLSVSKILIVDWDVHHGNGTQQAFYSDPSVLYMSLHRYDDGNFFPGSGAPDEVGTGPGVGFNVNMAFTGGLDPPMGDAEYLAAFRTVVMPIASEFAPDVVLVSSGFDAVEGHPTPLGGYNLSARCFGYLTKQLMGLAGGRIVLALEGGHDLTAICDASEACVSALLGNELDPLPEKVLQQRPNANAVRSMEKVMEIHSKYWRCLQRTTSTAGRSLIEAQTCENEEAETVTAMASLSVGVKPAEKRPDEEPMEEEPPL
# pIC50 listing for each entry below
The meaning of pIC50 here: minus log10 of the concentration in molar units.

Would you please look over these solved cases?
# MOLECULE, pIC50
records = [
    ("COc1cc2cc(c1)COc1ccccc1NC(=O)[C@@H](CCCCCC(=O)NO)OCCC2", 6.34),
    ("COc1cc2cc(c1)COc1ccccc1NC(=O)C(CCCCCC(=O)NO)OCCC2 (racemic)", 6.35),
    ("COc1cc2cc(c1)COc1ccccc1NC(=O)[C@H](CCCCCC(=O)NO)OCCC2", 6.93),
    ("COc1cc2cc(c1)COc1ccccc1NC(=O)C(CCCCCC(=O)NO)OC/C=C\\2 (racemic)", 6.80),
]

We next turn to a different molecule, shown below.
Known value: Histone deacetylase 4 (Homo sapiens) pIC50 of the molecule O=C(CCCCCC1OCCCCCCCOc2ccccc2NC1=O)NO (racemic) equals 5.90

----------
This document collects IC50 values reported for Histone deacetylase 3 (Homo sapiens).
Supply the numeric figure in nM, leaving out any unit text.

Below, each entry is followed by its recorded IC50 result.
# MOLECULE, IC50, nM
data = [
    ("COc1cc2cc(c1)COc1ccccc1NC(=O)[C@@H](CCCCCC(=O)NO)OC/C=C\\2", 89),
    ("COc1cc2cc(c1)COc1ccccc1NC(=O)[C@@H](CCCCCC(=O)NO)OCCC2", 94.5),
    ("O=C(CCCCCC1OCCCCCCCOc2ccccc2NC1=O)NO (racemic)", 240),
    ("O=C(CCCCCC1OCCCCCOc2ccccc2NC1=O)NO (racemic)", 369),
    ("COc1cc2cc(c1)COc1ccccc1NC(=O)C(CCCCCC(=O)NO)OC/C=C\\2 (racemic)", 39.6),
]

The molecule identified as COc1ccc(COC(CCCCCC(=O)NO)C(=O)Nc2ccccc2)cc1 (racemic) registered its IC50 at 131

----------
- ASSAY SYSTEM: Histone deacetylase 5 (Homo sapiens, UniProt Q9UQL6)
PROPERTY NAME: IC50 (nM)
Quick reminder: number only, in nM, skip the unit.

These recorded examples may help you get a feel for the data.
# MOLECULE, IC50 [nM]
records = [
    ("O=C(CCCCCC1OCCCCCCCOc2ccccc2NC1=O)NO (racemic)", 695),
    ("COc1cc2cc(c1)COc1ccccc1NC(=O)[C@@H](CCCCCC(=O)NO)OCCC2", 150),
]

Moving on to another molecule below.
Here COc1cc2cc(c1)COc1ccccc1NC(=O)[C@H](CCCCCC(=O)NO)OC/C=C\2 was tested on Histone deacetylase 5 (Homo sapiens, UniProt Q9UQL6), and its IC50 came to 62.2
